PROTOCOL NOTES: Metabolic stability in mouse hepatocyte assessed as half life
Type: ADME, cell-based
EXPERIMENTAL SETUP: hepatocytes
EXPERIMENTAL READOUT: half-life

Input line: So what does the record say about half-life for "CNC(=O)CCCCC[C@H](NC(=O)Cn1ccc2cc(C#N)ccc21)c1ncc(-c2ccc(CN(C)C)cc2)[nH]1" ?
Output line: > 4 h

* * *

TESTED TARGET: Cytochrome P450 2D6 (Homo sapiens)
Sequence (P10635 whole entry): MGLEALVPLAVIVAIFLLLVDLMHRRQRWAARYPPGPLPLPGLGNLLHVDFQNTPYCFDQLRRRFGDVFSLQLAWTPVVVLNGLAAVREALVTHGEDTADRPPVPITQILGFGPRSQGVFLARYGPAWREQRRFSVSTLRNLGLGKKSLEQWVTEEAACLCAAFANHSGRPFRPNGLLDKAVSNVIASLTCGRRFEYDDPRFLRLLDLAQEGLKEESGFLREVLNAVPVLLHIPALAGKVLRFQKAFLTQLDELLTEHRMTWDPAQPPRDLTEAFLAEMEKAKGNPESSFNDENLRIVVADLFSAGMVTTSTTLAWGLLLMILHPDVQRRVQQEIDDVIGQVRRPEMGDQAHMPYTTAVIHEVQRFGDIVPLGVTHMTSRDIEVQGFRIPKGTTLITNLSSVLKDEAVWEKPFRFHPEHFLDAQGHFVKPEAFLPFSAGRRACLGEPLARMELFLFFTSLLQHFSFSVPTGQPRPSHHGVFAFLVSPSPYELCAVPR
EXPERIMENTAL READOUT: IC50

Input line: So what does the record say about IC50 for "CCC(=O)CCCCC[C@H](NC(=O)C1CN(C)C1)c1ncc(-c2cc3ccccc3nc2OC)o1" ?
Output line: > 20 µM

* * *

PROTOCOL NOTES: Half life in Gottigen pig plasma by LC/MS/MS analysis
Format: ADME, Sus scrofa
EXPERIMENTAL READOUT: half-life (h)
Answers are plain numbers, in h.

Input line: So what does the record say about half-life for "CCC(=O)CCCCC[C@H](NC(=O)C1CN(C)C1)c1ncc(-c2cc3ccccc3nc2OC)o1" ?
Output line: 3.7

* * *

PROTOCOL NOTES: Metabolic stability in human plasma assessed as half life
Format: ADME, cell-free
EXPERIMENTAL READOUT: half-life

Input line: So what does the record say about half-life for "CNC(=O)CCCCC[C@H](NC(=O)Cn1ccc2cc(C#N)ccc21)c1ncc(-c2ccc(CN(C)C)cc2)[nH]1" ?
Output line: > 4 h

* * *

PROTOCOL NOTES: AUC in NMRI mouse plasma at 5 to 20 mg/kg, po by LC/MS/MS analysis
Assay type: ADME, organism-based
Design: route po
EXPERIMENTAL SETUP: NMRI, plasma, dose 5-20 mg/kg, read-out: AUC
EXPERIMENTAL READOUT: AUC (µM·h)
Answers are plain numbers, in µM·h.

Input line: So what does the record say about AUC for "CCC(=O)CCCCC[C@H](NC(=O)C1CN(C)C1)c1ncc(-c2cc3ccccc3nc2OC)[nH]1" ?
Output line: 0.9

* * *

PROTOCOL NOTES: Half life in Wistar rat plasma at 10 mg/kg, po or 2 mg/kg,iv by LC/MS/MS analysis
Assay type: ADME, organism-based
EXPERIMENTAL READOUT: half-life (h)
Numbers only, in h.

Input line: So what does the record say about half-life for "CCC(=O)CCCCC[C@H](NC(=O)C1CN(C)C1)c1ncc(-c2cc3ccccc3nc2OC)o1" ?
Output line: 3.3

* * *

TESTED TARGET: Histone deacetylase 1 (Homo sapiens)
Sequence (Q13547 whole entry): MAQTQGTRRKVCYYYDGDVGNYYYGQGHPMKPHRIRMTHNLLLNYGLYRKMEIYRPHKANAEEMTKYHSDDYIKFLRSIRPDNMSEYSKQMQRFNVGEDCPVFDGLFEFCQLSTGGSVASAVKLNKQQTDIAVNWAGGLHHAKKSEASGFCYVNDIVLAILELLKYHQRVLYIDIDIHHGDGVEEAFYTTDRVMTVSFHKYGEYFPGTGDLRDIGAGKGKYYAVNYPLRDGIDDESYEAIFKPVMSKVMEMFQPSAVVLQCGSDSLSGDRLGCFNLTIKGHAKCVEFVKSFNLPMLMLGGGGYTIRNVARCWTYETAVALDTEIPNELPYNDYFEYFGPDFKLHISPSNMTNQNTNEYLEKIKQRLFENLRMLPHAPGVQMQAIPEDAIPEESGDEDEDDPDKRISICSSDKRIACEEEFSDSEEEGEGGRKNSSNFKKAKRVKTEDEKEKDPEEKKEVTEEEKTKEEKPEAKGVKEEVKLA
PROTOCOL NOTES: Inhibition of human recombinant his tagged HDAC1 expressed in baculovirus expression system using FLUOR DE LYS-SIRT1 as fluorogenic substrate preincubated for 10 mins followed by substrate addition and measured after 1 hr by spectrophotometer based analysis
Field: pIC50. Provide a value for each of the compounds that follow.
Answers are plain numbers, as −log10 of the molar value.

These recorded examples may help you get a feel for the data.
{"columns": ["COMPOUND", "TESTED TARGET", "pIC50"],
 "data": [
  ["CCC(=O)CCCCC[C@H](NC(=O)Cc1c(C)[nH]c2ccc(OC)cc12)c1ncc(-c2ccc3ccccc3c2)[nH]1", "Histone deacetylase 1 (Homo sapiens)", 8.49],
  ["CNC(=O)CCCCC[C@H](NC(=O)c1cncs1)c1ncc(-c2ccc(CN(C)C)cc2)[nH]1", "Histone deacetylase 1 (Homo sapiens)", 5.22],
  ["CCC(=O)CCCCC[C@H](NC(=O)C1CN(C)C1)c1ncc(-c2cc3ccccc3[nH]c2=O)o1", "Histone deacetylase 1 (Homo sapiens)", 8.68]
]}

Working through the 4 compounds below one at a time, give pIC50 for each.
1. CCC(=O)CCCCC[C@H](NC(=O)C1CNC(=O)C1)c1ncc(-c2cc3ccccc3nc2OC)o1 (stereo partly drawn)
2. CCC(=O)CCCCC[C@H](NC(=O)C(=O)N1CCOCC1)c1ncc(-c2cc3ccccc3nc2OC)o1
3. CCC(=O)CCCCC[C@H](NC(=O)C1CN(C)C1)c1ncc(-c2ccc3ccccc3c2)o1
4. CNC(=O)CCCCC[C@H](NC(=O)c1cncs1)c1ncc(-c2ccc3ccccc3c2)[nH]1

Output line:
8.49
7.52
7.91
6.49

Input line: Item "CCC(=O)CCCCC[C@H](NC(=O)C1(F)CN(C)C1)c1ncc(-c2cc3ccccc3nc2OC)o1" with Histone deacetylase 1 (Homo sapiens) - pIC50?
Output line: 7.77
